These entries and their values trace back to BigSolDB 2.1.

- Experimental Context: in sec-butanol, 288.15 K
Reported Property: solubility (mole fraction)
Answer as a number with no unit attached.

Query O=Cc1cc(C=O)cc(C=O)c1 yields solubility (mole fraction) of 0.000394

---

- Experimental Context: in n-butanol, 288.15 K
Reported Property: solubility (mole fraction)
Lab note: record the figure alone, no unit after it.

Form: compound = O=Cc1cc(C=O)cc(C=O)c1 ; solubility (mole fraction) = 0.000765

---

- Experimental Context: in methanol, 283.15 K
Reported Property: solubility (mole fraction)
Reply with just the number.

# solubility (mole fraction) of O=Cc1cc(C=O)cc(C=O)c1 = 0.00351

---

- Experimental Context: in acetonitrile, 293.15 K
Reported Property: solubility (mole fraction)

Looking up O=Cc1cc(C=O)cc(C=O)c1 , I see its solubility (mole fraction) listed as 0.00711

---

- Experimental Context: in sec-butanol, 298.15 K
Reported Property: solubility (mole fraction)
Keep the answer to the number alone.

Value of solubility (mole fraction) reported for the molecule O=Cc1cc(C=O)cc(C=O)c1 is 0.000789

---

- Experimental Context: in isobutanol, 283.15 K
Reported Property: solubility (mole fraction)
Answer with a number only.

Entry O=Cc1cc(C=O)cc(C=O)c1 , solubility (mole fraction) reported as 0.000219

---

- Experimental Context: in methanol, 313.15 K
Reported Property: solubility (mole fraction)
Enter the number alone.

Item: O=Cc1cc(C=O)cc(C=O)c1 | solubility (mole fraction): 0.0122

---

- Experimental Context: in ethanol, 303.15 K
Reported Property: solubility (mole fraction)
Number, no unit, nothing else.

Entry O=Cc1cc(C=O)cc(C=O)c1 , solubility (mole fraction) reported as 0.00365

---

- Experimental Context: in acetonitrile, 308.15 K
Reported Property: solubility (mole fraction)
Quick one: just the number, no unit, thanks!

Looking up O=Cc1cc(C=O)cc(C=O)c1 , I see its solubility (mole fraction) listed as 0.0113

---

- Experimental Context: in n-butanol, 303.15 K
Reported Property: solubility (mole fraction)
Hey, just send me the number, nothing else.

Record O=Cc1cc(C=O)cc(C=O)c1 , field solubility (mole fraction): 0.00181

---

- Experimental Context: in n-butanol, 308.15 K
Reported Property: solubility (mole fraction)

Record O=Cc1cc(C=O)cc(C=O)c1 . Reported solubility (mole fraction): 0.00242

---

- Experimental Context: in n-pentanol, 293.15 K
Reported Property: solubility (mole fraction)
Answer with a bare number; do not write a unit.

Record O=Cc1cc(C=O)cc(C=O)c1 , field solubility (mole fraction): 0.00185

---

- Experimental Context: in n-pentanol, 303.15 K
Reported Property: solubility (mole fraction)
Answer with a number only.

The reported solubility (mole fraction) of the compound O=Cc1cc(C=O)cc(C=O)c1 was 0.00244

---

- Experimental Context: in water, 318.15 K
Reported Property: solubility (mole fraction)
Provide a numeric answer; units are not to be included.

Entry under test: O=Cc1cc(C=O)cc(C=O)c1 . Its solubility (mole fraction) was 0.000185

---

- Experimental Context: in sec-butanol, 308.15 K
Reported Property: solubility (mole fraction)

The compound O=Cc1cc(C=O)cc(C=O)c1 showed solubility (mole fraction) equal to 0.00128

---

- Experimental Context: in acetonitrile, 303.15 K
Reported Property: solubility (mole fraction)

Sure, the documented solubility (mole fraction) for O=Cc1cc(C=O)cc(C=O)c1 is 0.01

---

- Experimental Context: in isobutanol, 288.15 K
Reported Property: solubility (mole fraction)
Give the figure by itself; no unit, no explanation.

Query O=Cc1cc(C=O)cc(C=O)c1 yields solubility (mole fraction) of 0.000308

---

- Experimental Context: in n-pentanol, 283.15 K
Reported Property: solubility (mole fraction)
Lab note: record just the number, no unit beside it.

# solubility (mole fraction) (molecule: O=Cc1cc(C=O)cc(C=O)c1 ) is 0.00134

---

- Experimental Context: in n-propanol, 298.15 K
Reported Property: solubility (mole fraction)

Entry O=Cc1cc(C=O)cc(C=O)c1 ; solubility (mole fraction) = 0.00154

---

- Experimental Context: in n-butanol, 318.15 K
Reported Property: solubility (mole fraction)

Data point: O=Cc1cc(C=O)cc(C=O)c1 ; solubility (mole fraction) = 0.0037

---

- Experimental Context: in n-butanol, 298.15 K
Reported Property: solubility (mole fraction)
Give the figure only, with no unit attached.

get_value(item= O=Cc1cc(C=O)cc(C=O)c1 , readout=solubility (mole fraction)) returns 0.0013

---

- Experimental Context: in n-propanol, 308.15 K
Reported Property: solubility (mole fraction)
# answer = number (no unit)

The reported solubility (mole fraction) of the compound O=Cc1cc(C=O)cc(C=O)c1 was 0.00243

---

- Experimental Context: in water, 283.15 K
Reported Property: solubility (mole fraction)
Give the value as a plain number.

// recorded solubility (mole fraction) for O=Cc1cc(C=O)cc(C=O)c1 : 4.1e-05

---

- Experimental Context: in ethanol, 298.15 K
Reported Property: solubility (mole fraction)

Notebook: O=Cc1cc(C=O)cc(C=O)c1 , solubility (mole fraction) read as 0.00297

---

- Experimental Context: in isopropanol, 308.15 K
Reported Property: solubility (mole fraction)
Number only, please.

What the record says about O=Cc1cc(C=O)cc(C=O)c1 : solubility (mole fraction) is 0.00147

---

- Experimental Context: in methanol, 323.15 K
Reported Property: solubility (mole fraction)
Reply with just the number.

Form: compound = O=Cc1cc(C=O)cc(C=O)c1 ; solubility (mole fraction) = 0.0158

---

- Experimental Context: in water, 293.15 K
Reported Property: solubility (mole fraction)
The answer should be written as a number, with no unit following it.

Note to self: solubility (mole fraction) recorded for O=Cc1cc(C=O)cc(C=O)c1 was 8.8e-05

---

- Experimental Context: in sec-butanol, 318.15 K
Reported Property: solubility (mole fraction)
Field format: numeric only.

Lab note: O=Cc1cc(C=O)cc(C=O)c1 gave solubility (mole fraction) of 0.00206

---

- Experimental Context: in 1,4-dioxane, 308.15 K
Reported Property: solubility (mole fraction)

Consider O=Cc1cc(C=O)cc(C=O)c1 . Its measured solubility (mole fraction) is 0.0288

---

- Experimental Context: in acetonitrile, 288.15 K
Reported Property: solubility (mole fraction)
Number, no unit, nothing else.

Sample O=Cc1cc(C=O)cc(C=O)c1 ; solubility (mole fraction) observed: 0.00616

---

- Experimental Context: in water, 288.15 K
Reported Property: solubility (mole fraction)
Write the number on its own, no unit after it.

Lookup result for O=Cc1cc(C=O)cc(C=O)c1 ; measured solubility (mole fraction): 6.1e-05

---

- Experimental Context: in isobutanol, 323.15 K
Reported Property: solubility (mole fraction)
# answer = number (no unit)

Query O=Cc1cc(C=O)cc(C=O)c1 yields solubility (mole fraction) of 0.00601

---

- Experimental Context: in n-butanol, 323.15 K
Reported Property: solubility (mole fraction)
Reply with the value as a number alone.

Lab note: measured solubility (mole fraction) of O=Cc1cc(C=O)cc(C=O)c1 was 0.00565

---

- Experimental Context: in methanol, 303.15 K
Reported Property: solubility (mole fraction)
# print the numeric value only

solubility (mole fraction) measured on O=Cc1cc(C=O)cc(C=O)c1 = 0.00858

---

- Experimental Context: in ethanol, 323.15 K
Reported Property: solubility (mole fraction)
Give the value as a plain number.

Lab book: solubility (mole fraction) of O=Cc1cc(C=O)cc(C=O)c1 noted as 0.00703

---

- Experimental Context: in isopropanol, 313.15 K
Reported Property: solubility (mole fraction)
Answer with the value's number alone.

Looking up O=Cc1cc(C=O)cc(C=O)c1 , I see its solubility (mole fraction) listed as 0.00216

---

- Experimental Context: in n-propanol, 313.15 K
Reported Property: solubility (mole fraction)
Form rule: numeric answer, no unit written next to it.

# solubility (mole fraction) (molecule: O=Cc1cc(C=O)cc(C=O)c1 ) is 0.00296

---

- Experimental Context: in n-pentanol, 288.15 K
Reported Property: solubility (mole fraction)
// return just the number, without any unit appended

Lab note: measured solubility (mole fraction) of O=Cc1cc(C=O)cc(C=O)c1 was 0.00153

---

- Experimental Context: in sec-butanol, 283.15 K
Reported Property: solubility (mole fraction)

For record O=Cc1cc(C=O)cc(C=O)c1 the listed solubility (mole fraction) is 0.000294

---

- Experimental Context: in acetone, 313.15 K
Reported Property: solubility (mole fraction)
Answer with a bare number; do not write a unit.

Lab note: O=Cc1cc(C=O)cc(C=O)c1 gave solubility (mole fraction) of 0.0265

---

- Experimental Context: in acetonitrile, 318.15 K
Reported Property: solubility (mole fraction)
Reply with the value as a number alone.

O=Cc1cc(C=O)cc(C=O)c1 yielded solubility (mole fraction) of 0.0153
